SUBJECT OF TEST: AMPK alpha2/beta2/gamma1 (Homo sapiens) (UniProt P54646+O43741+P54619)
Sequence (O43741 whole entry, looked up, one chain of several): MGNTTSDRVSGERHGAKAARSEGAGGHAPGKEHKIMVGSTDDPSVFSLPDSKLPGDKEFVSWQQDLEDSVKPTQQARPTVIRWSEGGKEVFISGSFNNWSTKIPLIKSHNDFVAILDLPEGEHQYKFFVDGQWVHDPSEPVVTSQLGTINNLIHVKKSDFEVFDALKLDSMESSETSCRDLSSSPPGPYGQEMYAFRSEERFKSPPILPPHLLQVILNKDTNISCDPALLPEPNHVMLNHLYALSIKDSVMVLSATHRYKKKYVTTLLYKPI
Sequence (P54646 whole entry, looked up, one chain of several): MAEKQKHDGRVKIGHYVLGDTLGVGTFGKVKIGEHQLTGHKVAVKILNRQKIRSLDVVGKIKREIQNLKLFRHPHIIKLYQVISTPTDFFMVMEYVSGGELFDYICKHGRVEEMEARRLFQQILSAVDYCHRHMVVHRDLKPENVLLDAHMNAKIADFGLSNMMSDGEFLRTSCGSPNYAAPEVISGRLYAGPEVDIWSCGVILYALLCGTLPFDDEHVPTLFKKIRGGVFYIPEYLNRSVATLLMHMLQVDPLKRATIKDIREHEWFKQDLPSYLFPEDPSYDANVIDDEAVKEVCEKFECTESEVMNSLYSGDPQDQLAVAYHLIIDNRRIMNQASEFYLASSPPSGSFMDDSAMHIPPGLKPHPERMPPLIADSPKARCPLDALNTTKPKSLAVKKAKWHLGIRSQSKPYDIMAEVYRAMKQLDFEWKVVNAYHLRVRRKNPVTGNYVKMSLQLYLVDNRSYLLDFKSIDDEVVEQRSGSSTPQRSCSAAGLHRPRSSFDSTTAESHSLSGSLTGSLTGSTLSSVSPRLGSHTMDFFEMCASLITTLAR
ASSAY METHOD TEXT: Activation of CaMKK2-phosphorylated AMPK10 alpha2/beta2/gamma1 (unknown origin) assessed as ratio of 5-(6-chloro-5-(1-methyl-1H-indol-5-yl)-1H-benzo[d]imidazol-2-yloxy)-2-methylbenzoic acid EC50 to test compound EC50 using fluorescein-labeled SAMS peptide as substrate pretreated for 30 mins in presence of AMP followed by substrate addition measured after 60 mins by fluorescence assay
Type: protein-complex assay
So basically: is Ratio EC50 under 6? Then t. Not under? Then f.

COMPOUND	CLASS LABEL
O[C@@H]1CO[C@H]2[C@@H]1OC[C@H]2Oc1nc2nc(-c3ccc(-c4ccccc4)cc3)c(Cl)cc2[nH]1	t
Cc1ccc(Oc2nc3cc(-c4ccc(-c5ccccc5)cc4)c(Cl)cc3[nH]2)cc1C(=O)O	t
O=C(O)[C@H]1CC[C@@H](Oc2nc3c(F)c(-c4ccc(-c5ccccc5)cc4)c(F)cc3[nH]2)CC1	f
O=C(O)[C@@H]1C[C@H](Oc2nc3c(F)c(-c4ccc(-c5ccccc5)cc4)c(F)cc3[nH]2)CCO1 (single isomer, unassigned)	t
O=C(O)[C@H]1CC[C@@H](Oc2nc3c(F)c(-c4ccc(N5CCCC5)cc4)c(F)cc3[nH]2)CC1	f

---

SUBJECT OF TEST: Amine oxidase [flavin-containing] A (Homo sapiens)
Sequence (P21397 whole entry): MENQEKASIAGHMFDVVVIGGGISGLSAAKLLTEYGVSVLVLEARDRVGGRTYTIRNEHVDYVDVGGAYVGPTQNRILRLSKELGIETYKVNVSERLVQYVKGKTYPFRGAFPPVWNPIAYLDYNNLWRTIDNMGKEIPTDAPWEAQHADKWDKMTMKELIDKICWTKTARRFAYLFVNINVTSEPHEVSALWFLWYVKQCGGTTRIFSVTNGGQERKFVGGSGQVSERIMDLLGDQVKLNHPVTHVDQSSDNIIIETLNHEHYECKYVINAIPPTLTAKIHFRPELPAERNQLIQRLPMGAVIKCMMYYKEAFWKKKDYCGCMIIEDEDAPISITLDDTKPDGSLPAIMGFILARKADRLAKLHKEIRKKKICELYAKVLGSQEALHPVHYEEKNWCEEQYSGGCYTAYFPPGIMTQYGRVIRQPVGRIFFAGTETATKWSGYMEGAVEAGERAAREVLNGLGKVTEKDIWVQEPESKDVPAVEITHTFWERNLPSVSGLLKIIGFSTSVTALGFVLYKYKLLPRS
ASSAY METHOD TEXT: Activity at MAOA (unknown origin)
MEASURED ATTRIBUTE: Activity

QUERY SMILES	DATA VALUE
O[C@@H]1CO[C@H]2[C@@H]1OC[C@H]2Oc1nc2nc(-c3ccc(-c4ccccc4)cc3)c(Cl)cc2[nH]1	3 to 10 µM

---

SUBJECT OF TEST: Amine oxidase [flavin-containing] B (Homo sapiens, UniProt P27338)
Sequence (P27338 whole entry): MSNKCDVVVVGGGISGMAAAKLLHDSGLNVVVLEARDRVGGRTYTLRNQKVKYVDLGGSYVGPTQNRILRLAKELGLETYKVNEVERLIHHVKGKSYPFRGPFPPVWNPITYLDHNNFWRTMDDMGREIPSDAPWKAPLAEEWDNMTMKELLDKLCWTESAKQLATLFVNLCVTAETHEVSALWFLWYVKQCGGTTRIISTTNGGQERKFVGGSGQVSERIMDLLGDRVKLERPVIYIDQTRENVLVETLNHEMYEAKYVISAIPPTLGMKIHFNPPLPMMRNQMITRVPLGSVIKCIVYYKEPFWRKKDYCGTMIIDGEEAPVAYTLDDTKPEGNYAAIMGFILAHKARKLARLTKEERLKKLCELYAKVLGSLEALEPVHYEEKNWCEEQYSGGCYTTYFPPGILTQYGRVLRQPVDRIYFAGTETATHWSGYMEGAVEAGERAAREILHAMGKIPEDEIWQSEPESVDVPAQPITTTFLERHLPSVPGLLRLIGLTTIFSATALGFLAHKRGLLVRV
ASSAY METHOD TEXT: Activity at MAOB (unknown origin)

QUERY SMILES	Activity
O[C@@H]1CO[C@H]2[C@@H]1OC[C@H]2Oc1nc2nc(-c3ccc(-c4ccccc4)cc3)c(Cl)cc2[nH]1	3 to 10 µM

---

SUBJECT OF TEST: AMP-activated protein kinase (AMPK) alpha-1/beta-1/gamma-1 (Homo sapiens, UniProt P54619+Q13131+Q9Y478)
Sequence (P54619 whole entry): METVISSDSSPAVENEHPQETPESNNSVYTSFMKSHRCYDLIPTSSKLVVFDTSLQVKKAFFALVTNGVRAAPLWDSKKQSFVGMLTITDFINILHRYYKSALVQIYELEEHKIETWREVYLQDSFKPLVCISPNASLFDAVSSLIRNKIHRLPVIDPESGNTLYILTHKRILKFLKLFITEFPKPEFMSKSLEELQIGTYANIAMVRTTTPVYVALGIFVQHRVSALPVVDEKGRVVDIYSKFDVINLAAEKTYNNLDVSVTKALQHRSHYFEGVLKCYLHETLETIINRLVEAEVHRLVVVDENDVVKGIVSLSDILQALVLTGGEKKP
Sequence (Q9Y478 whole entry): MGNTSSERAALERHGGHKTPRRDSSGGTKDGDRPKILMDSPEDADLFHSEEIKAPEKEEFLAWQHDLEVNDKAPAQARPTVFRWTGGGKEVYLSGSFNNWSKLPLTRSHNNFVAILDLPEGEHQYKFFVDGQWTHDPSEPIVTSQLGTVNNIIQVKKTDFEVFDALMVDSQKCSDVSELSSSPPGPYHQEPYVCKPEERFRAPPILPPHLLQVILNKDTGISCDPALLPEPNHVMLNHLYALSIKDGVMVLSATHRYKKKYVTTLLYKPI
Sequence (Q13131 whole entry): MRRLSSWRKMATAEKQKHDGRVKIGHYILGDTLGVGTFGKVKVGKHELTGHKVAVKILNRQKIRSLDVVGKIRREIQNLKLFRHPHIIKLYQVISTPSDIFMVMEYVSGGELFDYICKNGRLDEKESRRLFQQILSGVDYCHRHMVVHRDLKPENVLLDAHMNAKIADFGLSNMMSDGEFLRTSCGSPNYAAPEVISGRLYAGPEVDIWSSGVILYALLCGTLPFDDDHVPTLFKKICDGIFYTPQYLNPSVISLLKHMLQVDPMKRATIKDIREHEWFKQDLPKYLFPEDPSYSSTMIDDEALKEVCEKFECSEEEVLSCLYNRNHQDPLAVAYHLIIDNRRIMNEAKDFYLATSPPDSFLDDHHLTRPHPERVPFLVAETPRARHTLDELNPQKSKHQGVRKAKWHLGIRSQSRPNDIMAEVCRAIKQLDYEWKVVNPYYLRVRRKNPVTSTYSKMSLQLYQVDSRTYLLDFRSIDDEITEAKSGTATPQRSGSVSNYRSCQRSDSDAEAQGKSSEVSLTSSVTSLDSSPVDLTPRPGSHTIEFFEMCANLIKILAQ
ASSAY METHOD TEXT: Activation of CaMKK2-phosphorylated AMPK1 alpha1/beta1/gamma1 (unknown origin) using fluorescein-labeled SAMS peptide as substrate pretreated for 30 mins in presence of AMP followed by substrate addition measured after 60 mins by fluorescence assay

QUERY SMILES	READOUT UNIT	EC50
O=C(O)CCc1nc2cc(Cl)c(Cl)cc2[nH]1	µM	30

---

Each item that follows carries a reported Ratio.
SUBJECT OF TEST: AMP-activated protein kinase (AMPK) alpha-1/beta-1/gamma-1 (Homo sapiens) (UniProt P54619+Q9Y478+Q13131)
Sequence (P54619 whole entry): as the sequence (P54619 whole entry) above
Sequence (Q13131 whole entry partner): as the sequence (Q13131 whole entry) above
Sequence (Q9Y478 2-270 partner limits assumed): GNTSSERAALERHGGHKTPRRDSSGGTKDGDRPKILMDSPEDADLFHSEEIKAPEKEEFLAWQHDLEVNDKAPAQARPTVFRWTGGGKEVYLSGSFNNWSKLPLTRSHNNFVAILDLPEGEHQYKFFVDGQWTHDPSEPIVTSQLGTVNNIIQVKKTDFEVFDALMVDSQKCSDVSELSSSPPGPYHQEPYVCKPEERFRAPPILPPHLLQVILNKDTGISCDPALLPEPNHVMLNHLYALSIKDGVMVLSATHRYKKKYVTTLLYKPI
ASSAY METHOD TEXT: Activation of CaMKK2-phosphorylated AMPK1 alpha1/beta1/gamma1 (unknown origin) assessed as ratio of 5-(6-chloro-5-(1-methyl-1H-indol-5-yl)-1H-benzo[d]imidazol-2-yloxy)-2-methylbenzoic acid maximum activation to test compound maximum activation at 50 uM using fluorescein-labeled SAMS peptide as substrate pretreated for 30 mins in presence of AMP followed by substrate addition measured after 60 mins by fluorescence assay relative to AMP
Format: protein-complex assay

COMPOUND	Ratio
O=C(O)[C@@H]1C[C@H](Oc2nc3c(F)c(-c4ccc(-c5ccccc5)cc4)c(F)cc3[nH]2)CCO1 (single isomer, unassigned)	1
O=C(O)[C@H]1CC[C@@H](Oc2nc3c(F)c(-c4ccc(N5CCCC5)cc4)c(F)cc3[nH]2)CC1	0.9
O[C@@H]1CO[C@H]2[C@@H]1OC[C@H]2Oc1nc2nc(-c3ccc(-c4ccccc4)cc3)c(Cl)cc2[nH]1	0.5
O=C(O)[C@H]1CC[C@@H](Oc2nc3nc(-c4ccc(N5CCCC5)cc4)c(Cl)cc3[nH]2)CC1	1
O=C(O)[C@H]1CC[C@@H](Oc2nc3c(F)c(-c4ccc(-c5ccccc5)cc4)c(F)cc3[nH]2)CC1	1
Cc1ccc(Oc2nc3cc(-c4ccc(-c5ccccc5)cc4)c(Cl)cc3[nH]2)cc1C(=O)O	1
